All figures here come from patent US12673975B2.

Measured pKd of individual entries
# TARGET SYSTEM: human integrin αvβ5 (Homo sapiens, UniProt P06756+P18084)
# Sequence (P06756 31-1048): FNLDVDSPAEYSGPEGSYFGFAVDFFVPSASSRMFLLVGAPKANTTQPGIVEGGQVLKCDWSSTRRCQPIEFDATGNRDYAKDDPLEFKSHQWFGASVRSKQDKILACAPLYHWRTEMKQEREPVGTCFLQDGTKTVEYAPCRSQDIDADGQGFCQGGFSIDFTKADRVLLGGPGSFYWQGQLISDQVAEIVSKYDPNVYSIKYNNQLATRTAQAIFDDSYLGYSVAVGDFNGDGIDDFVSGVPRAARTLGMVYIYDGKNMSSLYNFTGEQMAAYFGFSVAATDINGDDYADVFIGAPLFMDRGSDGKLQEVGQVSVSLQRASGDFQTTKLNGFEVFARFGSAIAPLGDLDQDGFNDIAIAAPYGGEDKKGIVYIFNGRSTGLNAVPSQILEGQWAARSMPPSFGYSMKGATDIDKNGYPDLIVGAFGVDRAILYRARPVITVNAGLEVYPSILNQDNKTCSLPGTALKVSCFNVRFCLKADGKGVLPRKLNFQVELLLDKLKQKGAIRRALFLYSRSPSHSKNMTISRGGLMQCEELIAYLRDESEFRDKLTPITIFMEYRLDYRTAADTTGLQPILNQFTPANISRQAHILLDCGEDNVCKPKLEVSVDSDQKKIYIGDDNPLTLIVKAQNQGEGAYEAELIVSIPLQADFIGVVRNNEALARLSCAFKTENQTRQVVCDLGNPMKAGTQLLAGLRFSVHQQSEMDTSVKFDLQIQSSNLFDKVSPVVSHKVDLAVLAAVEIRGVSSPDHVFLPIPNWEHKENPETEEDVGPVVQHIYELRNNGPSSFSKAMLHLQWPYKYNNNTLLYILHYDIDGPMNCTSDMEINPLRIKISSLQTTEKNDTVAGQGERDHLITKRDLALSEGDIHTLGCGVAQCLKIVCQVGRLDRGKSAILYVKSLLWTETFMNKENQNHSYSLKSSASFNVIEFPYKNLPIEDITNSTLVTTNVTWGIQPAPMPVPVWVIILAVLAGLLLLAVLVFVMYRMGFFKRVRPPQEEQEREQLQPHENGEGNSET
# Sequence (P18084 24-799): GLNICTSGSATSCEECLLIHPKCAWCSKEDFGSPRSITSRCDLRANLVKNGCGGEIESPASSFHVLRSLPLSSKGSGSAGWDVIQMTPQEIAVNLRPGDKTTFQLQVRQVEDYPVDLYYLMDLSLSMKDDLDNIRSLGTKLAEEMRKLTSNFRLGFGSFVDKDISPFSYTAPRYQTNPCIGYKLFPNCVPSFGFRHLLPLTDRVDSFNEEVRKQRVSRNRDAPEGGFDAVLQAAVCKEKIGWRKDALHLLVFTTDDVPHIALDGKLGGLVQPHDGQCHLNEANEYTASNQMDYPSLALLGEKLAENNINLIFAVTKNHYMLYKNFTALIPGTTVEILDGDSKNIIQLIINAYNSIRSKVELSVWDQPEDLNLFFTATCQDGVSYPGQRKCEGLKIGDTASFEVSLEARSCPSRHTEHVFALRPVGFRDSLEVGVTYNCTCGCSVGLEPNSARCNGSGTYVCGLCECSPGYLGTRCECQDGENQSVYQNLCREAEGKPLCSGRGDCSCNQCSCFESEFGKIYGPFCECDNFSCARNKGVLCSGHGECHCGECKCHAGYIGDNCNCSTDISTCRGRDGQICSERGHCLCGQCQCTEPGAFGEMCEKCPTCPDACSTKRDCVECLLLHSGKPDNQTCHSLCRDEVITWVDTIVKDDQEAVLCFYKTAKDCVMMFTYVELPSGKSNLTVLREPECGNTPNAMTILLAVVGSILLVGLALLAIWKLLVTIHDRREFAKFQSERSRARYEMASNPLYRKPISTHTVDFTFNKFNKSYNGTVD
# PROTOCOL TEXT: Evaluation of integrin binding property (surface plasmon resonance, Biacore 3000, immobilized cyclic peptide)
# TEST CONDITIONS: SPR, 25° C., HEPES buffer with 5 mM magnesium chloride, integrin 30-1,000 nM; read-out: Performance evaluation: Binding activity (dissociation constant between the cyclic peptide and human integrin αvβ5)
pKd: −log10 of the molar value. Starred links: 1 amine or outer side, 2 acyl side, 3 side chain; linkers in the order of their positions; H or OH if unused. Positions of bridges follow the written chain, without caps; N, C: chain ends. Non-standard residues stand in square brackets, D forms with d. Residues, ends and D or L forms follow the SMILES beside them. hCys = N[C@@H](CCS)C(=O)O; Dab = NCC[C@H](N)C(=O)O; X2 = O=C(C[*:1])[*:2]

human integrin αvβ5 (Homo sapiens, UniProt P06756+P18084) / pKd / C[C@H](NC(=O)[C@H](CCCCN)NC(=O)[C@H](CCCCN)NC(=O)[C@@H](N)CCCCN)C(=O)N[C@H]1CCSCC(=O)NCC[C@@H](C(=O)O)NC(=O)[C@H](CCCNC(=N)N)NC(=O)[C@H](Cc2ccc(O)cc2)NC(=O)[C@H](CC(N)=O)NC(=O)[C@H](CC(=O)O)NC(=O)CNC(=O)[C@H](CCCNC(=N)N)NC(=O)[C@@H]2CCCN2C(=O)[C@H](CCC(=O)O)NC1=O [Cyclic peptide 45, KKKA-(Hcy)-EPRGDNYR(Dab(acetyl))] (H-KKKA[hCys]EPRGDNYR[Dab]-OH; linker 5-14 via X2) : value?
7.00 to 7.30

Another compound to look at: CC[C@H](C)[C@@H]1NC(=O)[C@@H](NC(=O)[C@H](C)NC(=O)[C@H](CCCCN)NC(=O)[C@H](CCCCN)NC(=O)[C@@H](N)CCCCN)CCSCC(=O)NCC[C@@H](C(=O)N[C@@H](C)C(=O)O)NC(=O)[C@H](C)NC(=O)[C@H](Cc2ccccc2)NC(=O)[C@H]([C@@H](C)O)NC(=O)[C@H](CC(=O)O)NC(=O)CNC(=O)[C@H](CCCNC(=N)N)NC(=O)[C@@H]2CCCN2C1=O [Cyclic peptide 87, KKKA-(Hcy)-IPRGDTFA(Dab(acetyl))A] (H-KKKA[hCys]IPRGDTFA[Dab]A-OH; linker 5-14 via X2)
> 7.30

Another compound to look at: CC[C@H](C)[C@@H]1NC(=O)[C@@H](NC(=O)[C@H](CCCCN)NC(=O)[C@H](CCCCN)NC(=O)[C@@H](N)CCCCN)CCSCC(=O)NCC[C@@H](C(=O)N[C@@H](C)C(=O)O)NC(=O)[C@H](Cc2ccccc2)NC(=O)[C@H]([C@@H](C)O)NC(=O)[C@H](CC(=O)O)NC(=O)CNC(=O)[C@H](CCCNC(=N)N)NC(=O)[C@@H]2CCCN2C1=O [Cyclic peptide 60, KKK-(Hcy)-IPRGDTF(Dab(acetyl))A] (H-KKK[hCys]IPRGDTF[Dab]A-OH; linker 4-12 via X2)
> 7.30

Another compound to look at: C[C@H](NC(=O)[C@@H]1CCNC(=O)CSCC[C@H](NC(=O)[C@H](CCCCN)NC(=O)[C@H](CCCCN)NC(=O)[C@@H](N)CCCCN)C(=O)N2CCC[C@H]2C(=O)N[C@@H](CCCNC(=N)N)C(=O)NCC(=O)N[C@@H](CC(=O)O)C(=O)N[C@@H](CC(N)=O)C(=O)N[C@@H](Cc2ccccc2)C(=O)N[C@@H](CCCNC(=N)N)C(=O)N1)C(=O)O [Cyclic peptide 9, KKK-(Hcy)-PRGDNFR(Dab(acetyl))A] (H-KKK[hCys]PRGDNFR[Dab]A-OH; linker 4-12 via X2)
6.70 to 7.00
